Source listed as ChEMBL document CHEMBL1143261.

measured target: Gamma-aminobutyric acid receptor subunit rho-1 (Homo sapiens, UniProt P24046)
Sequence (P24046 whole entry): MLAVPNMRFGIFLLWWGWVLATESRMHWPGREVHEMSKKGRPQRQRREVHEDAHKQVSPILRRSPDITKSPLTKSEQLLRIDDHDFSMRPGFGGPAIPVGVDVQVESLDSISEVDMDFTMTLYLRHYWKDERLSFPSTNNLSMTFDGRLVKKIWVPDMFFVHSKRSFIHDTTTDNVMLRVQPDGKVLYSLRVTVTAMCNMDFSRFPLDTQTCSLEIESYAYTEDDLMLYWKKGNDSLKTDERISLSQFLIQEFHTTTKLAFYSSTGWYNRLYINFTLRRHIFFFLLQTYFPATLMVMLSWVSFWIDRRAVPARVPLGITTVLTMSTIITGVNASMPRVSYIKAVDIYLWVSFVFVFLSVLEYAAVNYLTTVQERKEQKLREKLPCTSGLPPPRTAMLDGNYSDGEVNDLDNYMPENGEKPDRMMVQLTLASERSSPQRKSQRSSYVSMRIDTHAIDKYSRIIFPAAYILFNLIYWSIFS
assay method text: Antagonist activity at human recombinant GABAc rho1 receptor expressed in Xenopus laevis oocytes at -60mV by two-electrode voltage clamp method
metric: IC50
Lab note: write values as number then unit, every time.

Example entries begin here.
CP(=O)(O)C[C@H](O)CN
5.4 µM
CP(=O)(O)C[C@@H](O)CN
17.1 µM

From here, focus on the item given below.
Item `C[C@H](CCN)C(=O)O` : provide IC50
16 µM

###

measured target: Gamma-aminobutyric acid receptor subunit rho-1 (Homo sapiens, UniProt P24046)
assay method text: Agonist activity at human recombinant GABAc rho1 receptor expressed in Xenopus laevis oocytes at -60mV by two-electrode voltage clamp method
// values below are reported EC50
Form entry: value (µM) — number only.

Worked cases, EC50 given:
C[C@@H](CCN)C(=O)O
65
NC[C@@H](O)CC(=O)O
44.8

Turning now to a further record.
Enter measured EC50, system Gamma-aminobutyric acid receptor subunit rho-1 (Homo sapiens, UniProt P24046), for the compound shown: `NC[C@H](O)CC(=O)O`
19.1
